- Measurement target: hCLEC12A-His fusion protein (human) (UniProt Q5QGZ9)
- Sequence (Q5QGZ9 65-265 limits assumed): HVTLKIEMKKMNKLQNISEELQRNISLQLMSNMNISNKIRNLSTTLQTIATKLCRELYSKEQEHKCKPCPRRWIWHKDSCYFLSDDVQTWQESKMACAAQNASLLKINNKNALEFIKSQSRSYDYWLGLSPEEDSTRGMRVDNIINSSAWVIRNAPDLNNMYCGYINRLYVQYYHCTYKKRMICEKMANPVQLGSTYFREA
- Method summary: SPR screening, semi-purified protein
Task for the reader: assign each of the following binders its reported pKd.
Give bare numbers, as −log10 of the molar value.

Examples with answers:
Q: Give its pKd value. Item: F3′-1295 (bispecific antibody, part only; not given: Fc and unrelated binding arm, not shown: another chain or arm of the molecule; a dimerising Fc or GST) scFv: QLQLQESGPGLVKPSETLSLTCTVSGFSLTNYGLHWIRQPPGKCLEWIGVIWSGGKTDYNPSLKSRVTISKDTSKNQFSLKLSSVQAADTAVYYCAKYDYDDSLDYWGQGTLVTVSSGGGGSGGGGSGGGGSGGGGSDIQMTQSPSSLSASVGDRVTITCHASQNINFWLSWYQQKPGKIPKLLIYEASNLHTGVPSRFSGSGSGTRFTLTISSLQPEDIATYYCQQSHSYPLTFGCGTKLEIK
A: 8.53

Q: Please look up its pKd: F3′-1296 (bispecific antibody, part only; not given: Fc and unrelated binding arm, not shown: another chain or arm of the molecule; a dimerising Fc or GST) scFv: QLQLQESGPGLVKPSETLSLTCTVSGFSLTNYGLHWIRQPPGKCLEWIGVIWSGGKTDYNPSLKSRVTISKDTSKNQFSLKLSSVQANDTAVYYCARYDYDDSLDYWGQGTLVTVSSGGGGSGGGGSGGGGSGGGGSDIQMTQSPSSLSASVGDRVTITCHASQNINFWLSWYQQKPGKIPKLLIYEASNLHTGVPSRFSGSGSGTRFTLTISSLQPEDIATYYCQQSHSYPLTFGCGTKLEIK
A: 8.87

Consider the record given below.
Q: Bench note: what pKd did F3′-1304 (bispecific antibody, part only; not given: Fc and unrelated binding arm, not shown: another chain or arm of the molecule; a dimerising Fc or GST; small tags and cut ends) scFv: DIQMTQSPSSLSASVGDRVTITCHASQNINFWLSWYQQKPGKIPKLLIYEASNLHTGVPSRFSGSGSGTRFTLTISSLQPEDIATYYCQQSHSYPLTFGCGTKLEIKGGGGSGGGGSGGGGSGGGGSQLQLQESGPGLVKPSETLSLTCTVSGFSLTNYGLHWIRQPPGKCLEWIGVIWSGGKTDYNPSLKSRVTISKDTSKNQFSLKLSSVQAADTAVYYCAKYDYDDSLDYWGQGTLVTVSS show?
A: 8.57
